assay-protocol: Phase I study CXR1002-001: plasma pharmacokinetics (LC-MS/MS)
Assay type: in vivo, human
test-context: human, plasma, oral, 450 mg, Patient 015 Dose 450 mg; 696 hr (Day 30); read-out: Concentration
Excerpt: PK samples, PD (fasting) samples, blood glucose, and blood triglyceride samples, were taken over a 6-week period. Dose limiting toxicity (DLT) will be based on the toxicity assessments over the first 3-week period of the repeat dosing schedule. […]

smiles-entry	concentration at 696 h
O=C(O)C(F)(F)C(F)(F)C(F)(F)C(F)(F)C(F)(F)C(F)(F)C(F)(F)F	708 µM

* * *

assay-protocol: Phase I study CXR1002-001: plasma pharmacokinetics (LC-MS/MS)
Type: in vivo, human
test-context: human, plasma, oral, 300 mg, Patient 012 Dose 300 mg; 339 hr; read-out: Concentration
Text: PK samples, PD (fasting) samples, blood glucose, and blood triglyceride samples, were taken over a 6-week period. Dose limiting toxicity (DLT) will be based on the toxicity assessments over the first 3-week period of the repeat dosing schedule. […]

smiles-entry	concentration at 339 h (µM)
O=C(O)C(F)(F)C(F)(F)C(F)(F)C(F)(F)C(F)(F)C(F)(F)C(F)(F)F	196

All values here come from patent US20130029928A1.
